Hey, just so you know, these numbers are from patent US20120132797A1.

Test system: Wistar (Crl:WI(Han)) rats
Test: Mass spectrometry-based plasma metabolite profiling of rats treated with known inducers of thyroid function impairment
Type: in vivo, rat
Settings: male rats, mh7 (study day 7), ratio of group medians vs controls, Table 4
PROPERTY: threo-Sphingosine

>>> test_result("Cc1cccc(C)c1N(Cn1cccn1)C(=O)CCl [Metazachlor]")
2.05
>>> test_result("Cn1cc[nH]c1=S [Methimazole]")
3.02
>>> test_result("CCC(CC)Nc1c([N+](=O)[O-])cc(C)c(C)c1[N+](=O)[O-] [Pendimethalin]")
2.96
>>> test_result("CCC1(c2ccccc2)C(=O)NC(=O)NC1=O [Phenobarbital sodium]")
1.39

* * *

Test system: Wistar (Crl:WI(Han)) rats
Assay: Mass spectrometry-based plasma metabolite profiling of rats treated with known inducers of thyroid function impairment
Format: in vivo, rat
Settings: male rats, mh7 (study day 7), ratio of group medians vs controls, Table 4
List of Stearic acid (C18:0) values.
PROPERTY: Stearic acid (C18:0)

>>> test_result("CCC1(c2ccccc2)C(=O)NC(=O)NC1=O [Phenobarbital sodium]")
0.99
>>> test_result("Cc1cccc(C)c1N(Cn1cccn1)C(=O)CCl")
1.45
>>> test_result("Cn1cc[nH]c1=S")
1.34
>>> test_result("CCC(CC)Nc1c([N+](=O)[O-])cc(C)c(C)c1[N+](=O)[O-]")
1.64

* * *

System: Wistar (Crl:WI(Han)) rats
Assay: Mass spectrometry-based plasma metabolite profiling of rats treated with known inducers of thyroid function impairment
Format: in vivo, rat
Conditions: male rats, mh14 (study day 14), ratio of group medians vs controls, Table 4
PROPERTY: Threonic acid

>>> test_result("Cn1cc[nH]c1=S [Methimazole]")
0.69
>>> test_result("CCC(CC)Nc1c([N+](=O)[O-])cc(C)c(C)c1[N+](=O)[O-] [Pendimethalin]")
1.47
>>> test_result("Cc1cccc(C)c1N(Cn1cccn1)C(=O)CCl [Metazachlor]")
1.25
>>> test_result("CCC1(c2ccccc2)C(=O)NC(=O)NC1=O [Phenobarbital sodium]")
1.95

* * *

Tested on: Wistar (Crl:WI(Han)) rats
Experiment: Mass spectrometry-based plasma metabolite profiling of rats treated with known inducers of thyroid function impairment
Type: in vivo, rat
Settings: male rats, mh14 (study day 14), ratio of group medians vs controls, Table 4
PROPERTY: dihomo-gamma-Linolenic acis (C20:cis[8,11,14]3)

>>> test_result("CCC1(c2ccccc2)C(=O)NC(=O)NC1=O [Phenobarbital sodium]")
1.03
>>> test_result("Cn1cc[nH]c1=S")
3.22
>>> test_result("Cc1cccc(C)c1N(Cn1cccn1)C(=O)CCl")
5.18
>>> test_result("CCC(CC)Nc1c([N+](=O)[O-])cc(C)c(C)c1[N+](=O)[O-]")
3.53

* * *

System: Wistar (Crl:WI(Han)) rats
Assay: Mass spectrometry-based plasma metabolite profiling of rats treated with known inducers of thyroid function impairment
Assay type: in vivo, rat
Details: male rats, mh7 (study day 7), ratio of group medians vs controls, Table 4
Listed next: entries and their corresponding Glycerol phosphate.
PROPERTY: Glycerol phosphate

>>> test_result("Cn1cc[nH]c1=S")
2.09
>>> test_result("CCC(CC)Nc1c([N+](=O)[O-])cc(C)c(C)c1[N+](=O)[O-]")
2.06
>>> test_result("Cc1cccc(C)c1N(Cn1cccn1)C(=O)CCl")
1.63
>>> test_result("CCC1(c2ccccc2)C(=O)NC(=O)NC1=O [Phenobarbital sodium]")
1.05

* * *

The following compounds are listed with their measured Lignoceric acid (C24:0) values.
Test system: Wistar (Crl:WI(Han)) rats
Assay: Mass spectrometry-based plasma metabolite profiling of rats treated with known inducers of thyroid function impairment
Assay type: in vivo, rat
Details: male rats, mh28 (study day 28), ratio of group medians vs controls, Table 4
PROPERTY: Lignoceric acid (C24:0)

>>> test_result("CCC(CC)Nc1c([N+](=O)[O-])cc(C)c(C)c1[N+](=O)[O-]")
2.42
>>> test_result("Cn1cc[nH]c1=S")
2.16
>>> test_result("CCC1(c2ccccc2)C(=O)NC(=O)NC1=O [Phenobarbital sodium]")
1.25
>>> test_result("Cc1cccc(C)c1N(Cn1cccn1)C(=O)CCl")
2.11

* * *

Test system: Wistar (Crl:WI(Han)) rats
Assay: Mass spectrometry-based plasma metabolite profiling of rats treated with known inducers of thyroid function impairment
Type: in vivo, rat
Details: male rats, mh28 (study day 28), ratio of group medians vs controls, Table 4
Recorded Phospha-tidylcholine (C18:0, 18:2) by entry
PROPERTY: Phospha-tidylcholine (C18:0, 18:2)

>>> test_result("CCC(CC)Nc1c([N+](=O)[O-])cc(C)c(C)c1[N+](=O)[O-]")
1.32
>>> test_result("CCC1(c2ccccc2)C(=O)NC(=O)NC1=O [Phenobarbital sodium]")
1.05
>>> test_result("Cn1cc[nH]c1=S")
1.35
>>> test_result("Cc1cccc(C)c1N(Cn1cccn1)C(=O)CCl")
1.51

* * *

This listing pairs compounds with measured Threonic acid.
Test system: Wistar (Crl:WI(Han)) rats
Assay: Mass spectrometry-based plasma metabolite profiling of rats treated with known inducers of thyroid function impairment
Type: in vivo, rat
Details: male rats, mh7 (study day 7), ratio of group medians vs controls, Table 4
PROPERTY: Threonic acid

>>> test_result("Cc1cccc(C)c1N(Cn1cccn1)C(=O)CCl [Metazachlor]")
1.16
>>> test_result("Cn1cc[nH]c1=S [Methimazole]")
0.72
>>> test_result("CCC(CC)Nc1c([N+](=O)[O-])cc(C)c(C)c1[N+](=O)[O-] [Pendimethalin]")
1.39
>>> test_result("CCC1(c2ccccc2)C(=O)NC(=O)NC1=O [Phenobarbital sodium]")
1.86

* * *

Tested on: Wistar (Crl:WI(Han)) rats
Assay: Mass spectrometry-based plasma metabolite profiling of rats treated with known inducers of thyroid function impairment
Assay type: in vivo, rat
Settings: male rats, mh7 (study day 7), ratio of group medians vs controls, Table 4
PROPERTY: Sphingomyelin (d18:1, C16:0)

>>> test_result("CCC(CC)Nc1c([N+](=O)[O-])cc(C)c(C)c1[N+](=O)[O-] [Pendimethalin]")
2.10
>>> test_result("CCC1(c2ccccc2)C(=O)NC(=O)NC1=O [Phenobarbital sodium]")
1.30
>>> test_result("Cc1cccc(C)c1N(Cn1cccn1)C(=O)CCl [Metazachlor]")
2.54
>>> test_result("Cn1cc[nH]c1=S [Methimazole]")
2.24
